Experiment: Long-term stability in spiked pooled human plasma
Conditions: validation standard 2xLLOV
metric name: Long-term stability, 2 month, -80°C Accuracy [%] (%)
State just the number; it will be interpreted in %.

Would you kindly share the measured Long-term stability, 2 month, -80°C Accuracy [%] for `CCC1=C[C@@H]2CN(C1)Cc1c([nH]c3ccccc13)[C@@](C(=O)OC)(c1cc3c(cc1OC)N(C)[C@H]1[C@@](O)(C(=O)OC)[C@H](OC(C)=O)[C@]4(CC)C=CCN5CC[C@]31[C@@H]54)C2` ?
94.1

***
Give the measured Long-term stability, 2 month, -80°C Accuracy [%] of `Cn1cnc2c(F)c(Nc3ccc(Br)cc3F)c(C(=O)NOCCO)cc21` .
106.4

What does the record list as Long-term stability, 2 month, -80°C Accuracy [%] for `Cc1[nH]c2ccccc2c1CCNCc1ccc(/C=C/C(=O)NO)cc1` ?
107.6

----------
Assay: Long-term stability in spiked pooled human plasma
Conditions: validation standard LLOV
# Lookup of reported Long-term stability, 3 month, -80°C Accuracy [%] keyed by entry
Provide only the numeric value, understood in %.

Solved entries:
Entry `CCN(CC)CCNC(=O)c1c(C)[nH]c(/C=C2\C(=O)Nc3ccc(F)cc32)c1C` : reported Long-term stability, 3 month, -80°C Accuracy [%] = ?
135.5

// query Long-term stability, 3 month, -80°C Accuracy [%] value for entry `O=C(c1cc(Cc2n[nH]c(=O)c3ccccc23)ccc1F)N1CCN(C(=O)C2CC2)CC1`
115.4

***
Which value of Long-term stability, 3 month, -80°C Accuracy [%] has been reported for `CCc1cc2c(cc1N1CCC(N3CCOCC3)CC1)C(C)(C)c1[nH]c3cc(C#N)ccc3c1C2=O` in the records?
81.6

Entry `CNC(=O)c1cc(Oc2ccc(NC(=O)Nc3ccc(Cl)c(C(F)(F)F)c3)c(F)c2)ccn1` has what Long-term stability, 3 month, -80°C Accuracy [%]?
105.1

Need Long-term stability, 3 month, -80°C Accuracy [%] of `Cc1ccc(Nc2nccc(N(C)c3ccc4c(C)n(C)nc4c3)n2)cc1S(N)(=O)=O` , thanks.
103.6

Which Long-term stability, 3 month, -80°C Accuracy [%] value is on record for `N#CC[C@H](C1CCCC1)n1cc(-c2ncnc3[nH]ccc23)cn1` ?
96.5

Which Long-term stability, 3 month, -80°C Accuracy [%] value is on record for `CCC1=C[C@@H]2CN(C1)Cc1c([nH]c3ccccc13)[C@@](C(=O)OC)(c1cc3c(cc1OC)N(C)[C@H]1[C@@](O)(C(=O)OC)[C@H](OC(C)=O)[C@]4(CC)C=CCN5CC[C@]31[C@@H]54)C2` ?
118.7

Item under review: `COc1cc(N2CCC(N3CCN(C)CC3)CC2)ccc1Nc1ncc(Cl)c(Nc2ccccc2P(C)(C)=O)n1` . Reported Long-term stability, 3 month, -80°C Accuracy [%]?
93.0

Entry `CC(C)(C)c1nc(-c2cccc(NS(=O)(=O)c3c(F)cccc3F)c2F)c(-c2ccnc(N)n2)s1` has what Long-term stability, 3 month, -80°C Accuracy [%]?
96.6

# query: Long-term stability, 3 month, -80°C Accuracy [%] of entry `CN(C)C/C=C/C(=O)Nc1cc2c(Nc3ccc(F)c(Cl)c3)ncnc2cc1O[C@H]1CCOC1`
90.0

I am curious: what Long-term stability, 3 month, -80°C Accuracy [%] value has been reported for `COc1cc2nccc(Oc3ccc(NC(=O)Nc4cc(C)on4)c(Cl)c3)c2cc1OC` ?
97.1
